experiment: Tmax in rat at 2 mg/kg, po; type: ADME, organism-based; settings: in vivo
quantity name: Tmax (h)
Your answer should be a plain number; it is taken to be in h.

Inquiry: Note Tmax for the compound shown: `O=C(CNc1cc(Cl)cc(Cl)c1)N1CCC[C@@H](Nc2ncnc3[nH]ccc23)C1`
Reply text: 2

====

experiment: Solubility of the compound; format: physicochemical
quantity name: solubility
Write the quantity with the unit trailing the number.

Inquiry: Note solubility for the compound shown: O=C(CNc1cc(Cl)cc(Cl)c1)NC1CCCN(c2ncnc3[nH]ccc23)C1 (stereo unspecified)
Reply text: 39 µg/mL

====

experiment: Volume of distribution at steady state in Sprague-Dawley rat at 1 mg/kg, iv; assay type: ADME, organism-based; conditions: in vivo, read-out: Vdss
Provide the recorded Vd for the entries that follow.
Your answer should be a plain number; it is taken to be in L/kg.

Inquiry: Note Vd for the compound shown: `C[C@@H]1[C@H](Nc2ncnc3[nH]ccc23)CCCN1C(=O)CNc1cc(Cl)cc(Cl)c1`
Reply text: 1.3

Inquiry: Note Vd for the compound shown: `O=C(CNc1cc(Cl)cc(Cl)c1)N1CC[C@H]2CCN(c3ncnc4[nH]ccc34)[C@H]2C1`
Reply text: 1.1

====

experiment: Oral bioavailability in rat at 2 mg/kg; assay type: ADME, organism-based; conditions: in vivo
quantity name: bioavailability (%)
Your answer should be a plain number; it is taken to be in %.

Inquiry: Note bioavailability for the compound shown: `O=C(CNc1cc(Cl)cc(Cl)c1)N1CCC[C@@H](Nc2ncnc3[nH]ccc23)C1`
Reply text: 98

====

assay: Tmax in Sprague-Dawley rat at 5 mg/kg, po; assay type: ADME, organism-based; details: in vivo
Provide the recorded Tmax for the entries that follow.
Your answer should be a plain number; it is taken to be in h.

Inquiry: Note Tmax for the compound shown: `O=C(CNc1cc(Cl)cc(Cl)c1)N1CC[C@H]2CCN(c3ncnc4[nH]ccc34)[C@H]2C1`
Reply text: 0.87

Inquiry: Note Tmax for the compound shown: `C[C@@H]1[C@H](Nc2ncnc3[nH]ccc23)CCCN1C(=O)CNc1cc(Cl)cc(Cl)c1`
Reply text: 1.6

====

experiment: Apparent permeability from apical to basolateral side in human CaCo-2/TC-7 cells; assay type: ADME, cell-based, Caco2/TC7
Provide the recorded Papp A→B for the entries that follow.
Your answer should be a plain number; it is taken to be in ×10⁻⁶ cm/s.

Inquiry: Note Papp A→B for the molecule shown: `C[C@@H]1[C@H](Nc2ncnc3[nH]ccc23)CCCN1C(=O)CNc1cc(Cl)cc(Cl)c1`
Reply text: 150

Inquiry: Note Papp A→B for the molecule shown: `O=C(CNc1cc(Cl)cc(Cl)c1)N1CC[C@H]2CCN(c3ncnc4[nH]ccc34)[C@H]2C1`
Reply text: 190
